Molecular target: HLA-A*03:01
Experiment: IEDB peptide-MHC binding, purified MHC/competitive/fluorescence; bounds were set here for any values at or beyond the usual limits of such assays
Conditions: source organism: Homo sapiens
measured-property: IC50

# input Please look up its IC50: MVRVLTVIKEY
# output ≥ 20 µM

----------
Molecular target: HLA-A*30:01
Assay: IEDB peptide-MHC binding, purified MHC/direct/fluorescence; filed as Kd, often an IC50 or EC50 that approximates it; bounds were set here for any values at or beyond the usual limits of such assays
Conditions: source organism: Vibrio cholerae
measured-property: pKd
Numbers only, as −log10 of the molar value.

# input Find the measured pKd: item RPRIRLSAP , target or system HLA-A*30:01.
# output 5.42
